The entries below are paired with their reported Ki.
experimental-target: 5-hydroxytryptamine receptor 2B (Homo sapiens)
Sequence (P41595 whole entry): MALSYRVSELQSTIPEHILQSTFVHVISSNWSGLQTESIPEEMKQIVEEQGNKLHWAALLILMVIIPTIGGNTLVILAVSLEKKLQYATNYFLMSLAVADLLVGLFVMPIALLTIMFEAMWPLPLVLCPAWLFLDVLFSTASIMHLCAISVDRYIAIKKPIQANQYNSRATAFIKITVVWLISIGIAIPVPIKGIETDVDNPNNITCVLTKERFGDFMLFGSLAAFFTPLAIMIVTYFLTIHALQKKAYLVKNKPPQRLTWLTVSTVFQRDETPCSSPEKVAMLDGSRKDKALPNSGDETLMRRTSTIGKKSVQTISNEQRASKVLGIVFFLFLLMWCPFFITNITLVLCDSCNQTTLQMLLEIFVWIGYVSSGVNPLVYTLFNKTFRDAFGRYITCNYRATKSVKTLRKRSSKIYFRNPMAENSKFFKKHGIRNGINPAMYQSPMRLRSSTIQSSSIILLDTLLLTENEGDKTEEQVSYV
assay-summary: Displacement of [3H]5-HT from human 5-hydroxytryptamine 2B receptor expressed in HEK293 cells
Type: cell-based
API: value field is a number in µM; no unit string.

record-smiles: COc1cc2c(cc1C(F)(F)F)N(C(=O)Nc1cncc(-c3ccncc3)c1)CC2
experimental-target: 5-hydroxytryptamine receptor 2B (Homo sapiens)
Ki, µM: 0.01

Form field: Ki recorded for COc1cc2c(cc1C(F)(F)F)N(C(=O)Nc1cncc(-c3ccccc3)c1)CC2 with 5-hydroxytryptamine receptor 2B (Homo sapiens) (enter value) 0.0251

Form field: Ki recorded for COc1cc2c(cc1C(F)(F)F)N(C(=O)Nc1cncc(-c3c(F)cccc3F)c1)CC2 with 5-hydroxytryptamine receptor 2B (Homo sapiens) (enter value) 0.1

Form field: Ki recorded for COc1cc2c(cc1C(F)(F)F)N(C(=O)Nc1cncc(-c3cc(F)cc(F)c3)c1)CC2 with 5-hydroxytryptamine receptor 2B (Homo sapiens) (enter value) 0.501

Form field: Ki recorded for COc1cc2c(cc1C(F)(F)F)N(C(=O)Nc1cncc(-c3cccnc3)c1)CC2 with 5-hydroxytryptamine receptor 2B (Homo sapiens) (enter value) 0.01

Form field: Ki recorded for COc1cc2c(cc1C(F)(F)F)N(C(=O)Nc1cncc(-c3cnccc3C)c1)CC2 with 5-hydroxytryptamine receptor 2B (Homo sapiens) (enter value) 0.00631

Form field: Ki recorded for CSc1cc2c(cc1C(F)(F)F)N(C(=O)Nc1cccc(-c3cccnc3)c1)CC2 with 5-hydroxytryptamine receptor 2B (Homo sapiens) (enter value) 0.00794

Form field: Ki recorded for COc1cc2c(cc1C(F)(F)F)N(C(=O)Nc1ccc(-c3cccnc3)nc1)CC2 with 5-hydroxytryptamine receptor 2B (Homo sapiens) (enter value) 0.01

Form field: Ki recorded for COc1cc2c(cc1C(F)(F)F)N(C(=O)Nc1cncc(-c3ccc(F)cc3)c1)CC2 with 5-hydroxytryptamine receptor 2B (Homo sapiens) (enter value) 0.0631

Form field: Ki recorded for CSc1cc2c(cc1C(F)(F)F)N(C(=O)Nc1cccc(-c3ccncc3)c1)CC2 with 5-hydroxytryptamine receptor 2B (Homo sapiens) (enter value) 0.0251
